Data credit: patent US10973251B1

- Tested on: H69
- procedure_text: relative growth in dropout media (XTT / CellTiter-Glo)
- Type: cell-based, human
- details: —Cys (5x Met), vitamin supplementation 50x, three days, Cell-Titer-Glo
readout_kind: relative growth (%)
Numbers only here, please. The scale is %.

Exercise: Quick one: relative growth for Cc1ncc(C[n+]2csc(CCO)c2C)c(N)n1 [B1, thiamine] ?
Solution: 5.8

Exercise: Quick one: relative growth for NC(=O)c1cccnc1 [B3, niacinamide] ?
Solution: 5.3

Exercise: Quick one: relative growth for O=C(O)CCCC[C@@H]1SC[C@@H]2NC(=O)N[C@@H]21 [B7, biotin] ?
Solution: 5.7

Exercise: Quick one: relative growth for Cc1ncc(CO)c(CO)c1O [B6, pyridoxine] ?
Solution: 5.2

Exercise: Quick one: relative growth for Cc1cc2nc3c(=O)[nH]c(=O)nc-3n(C[C@H](O)[C@H](O)[C@H](O)CO)c2cc1C [B2, riboflavin] ?
Solution: 5.0

###

- Tested on: H520
- procedure_text: relative growth in dropout media (XTT / CellTiter-Glo)
- Format: cell-based, human
- details: —Cys (5x Met), vitamin supplementation 50x, three days, Cell-Titer-Glo
Assignment: determine reported relative growth for the given molecules.
Numbers only here, please. The scale is %.

Exercise: Quick one: relative growth for `O=C(O)CCCC[C@@H]1SC[C@@H]2NC(=O)N[C@@H]21` ?
Solution: 0.2

Exercise: Quick one: relative growth for NC(=O)c1cccnc1 [B3, niacinamide] ?
Solution: 0.3

Exercise: Quick one: relative growth for `Cc1ncc(CO)c(CO)c1O` ?
Solution: 0.2

Exercise: Quick one: relative growth for `Cc1cc2nc3c(=O)[nH]c(=O)nc-3n(C[C@H](O)[C@H](O)[C@H](O)CO)c2cc1C` ?
Solution: 0.3

Exercise: Quick one: relative growth for `Cc1ncc(C[n+]2csc(CCO)c2C)c(N)n1` ?
Solution: 0.5

###

Assignment: determine reported relative growth for the given molecules.
- System: HCC1187
- procedure_text: relative growth in dropout media (XTT / CellTiter-Glo)
- Type: cell-based, human
- details: —Cys (5x Met), vitamin supplementation 50x, three days, Cell-Titer-Glo
Numbers only here, please. The scale is %.

Exercise: Short answer please: relative growth, HCC1187, entry NC(=O)c1cccnc1 [B3, niacinamide]
Solution: 3.4

Exercise: Short answer please: relative growth, HCC1187, entry Cc1cc2nc3c(=O)[nH]c(=O)nc-3n(C[C@H](O)[C@H](O)[C@H](O)CO)c2cc1C [B2, riboflavin]
Solution: 1.0

Exercise: Short answer please: relative growth, HCC1187, entry O=C(O)CCCC[C@@H]1SC[C@@H]2NC(=O)N[C@@H]21 [B7, biotin]
Solution: 5.8

Exercise: Short answer please: relative growth, HCC1187, entry Cc1ncc(C[n+]2csc(CCO)c2C)c(N)n1 [B1, thiamine]
Solution: 6.2

Exercise: Short answer please: relative growth, HCC1187, entry Cc1ncc(CO)c(CO)c1O [B6, pyridoxine]
Solution: 2.2
